// provenance: patent US12473277B2

test: physchem; conditions: water
Some compounds, each annotated with its measured solubility.

O=C(O)C(=O)O.O=Cc1c(O)cccc1OC[C@@H]1COCCN1C(=O)c1cccnc1CCO [Compound I Oxalate Form B] = > 134 mg/mL

Query: Output measured solubility for this item: O=Cc1c(O)cccc1OC[C@@H]1COCCN1C(=O)c1cccnc1CCO.O=S(=O)(O)O [Compound I Sulfate Form A]
Result: > 87 mg/mL
